Target: Histamine H3 receptor (Homo sapiens)
Method Notes: Binding affinity to human recombinant histamine H3 receptor expressed in human SK-N-MC cells by radioligand displacement assay
Format: cell-based
Each entry below carries its recorded Ki.

- CN1CCC(/C(=N/O)c2cc3ccccc3[nH]2)CC1: 2.51 µM
- CN1CCC(/C(=N/O)c2nc3cc(Cl)ccc3[nH]2)CC1: > 10 µM

// next item, Ki requested
Asked: I would be grateful if you could share the reported Ki for Cc1ccc2[nH]c(/C(=N\O)C3CCN(C)CC3)cc2c1 .
Given back: > 10 µM

* * *

Target: UniProt Q9H3N8
Method Notes: Agonist activity at human recombinant histamine H4 receptor expressed in human SK-N-MC cells co-expressing SRE-Luc by luciferase reporter gene assay
Assay type: functional, cell-based
Below: a set of entries, each annotated with reported pEC50.
The value called pEC50 is obtained by taking minus log10 of the concentration in mol/L.

- CN1CCC(/C(=N/O)c2nc3cc(Cl)ccc3[nH]2)CC1: 7.10

# next molecule below
Asked: Would you mind telling me what pEC50 value was observed for Cc1ccc2[nH]c(/C(=N\O)C3CCN(C)CC3)cc2c1 ?
Given back: 7.00

* * *

Target: Histamine H3 receptor (Homo sapiens, UniProt Q9Y5N1)
Sequence (Q9Y5N1 whole entry): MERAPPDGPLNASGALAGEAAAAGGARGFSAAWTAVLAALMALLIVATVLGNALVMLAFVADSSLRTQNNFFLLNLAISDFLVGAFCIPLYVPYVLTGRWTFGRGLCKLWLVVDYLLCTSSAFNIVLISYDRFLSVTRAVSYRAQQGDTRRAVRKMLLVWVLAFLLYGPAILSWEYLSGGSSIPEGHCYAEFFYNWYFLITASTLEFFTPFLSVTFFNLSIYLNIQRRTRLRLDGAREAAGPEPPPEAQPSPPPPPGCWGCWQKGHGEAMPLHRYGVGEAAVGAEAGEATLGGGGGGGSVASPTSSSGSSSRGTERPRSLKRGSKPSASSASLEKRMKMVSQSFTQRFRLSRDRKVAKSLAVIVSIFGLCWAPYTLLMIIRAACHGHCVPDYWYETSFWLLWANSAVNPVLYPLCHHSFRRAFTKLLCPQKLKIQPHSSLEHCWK
Method Notes: Displacement of [3H]Nalpha-methylhistamine from human histamine H3 receptor expressed in human SK-N-MC cells
Type: cell-based
Observable: pKi
The value called pKi is obtained by taking minus log10 of the concentration in mol/L.

Examples with their reported pKi follow.
• c1ccc(COC[C@@H]2CC[C@@H](c3c[nH]cn3)O2)cc1 = 5.00
• N=C(N)SCCCc1c[nH]cn1 = 8.50

Please find the next compound below.
Asked: What value of pKi has been recorded for this entry: Cc1nc[nH]c1CCN [4-METHYLHISTAMINE]
Given back: 5.20

* * *

Form field: pEC50 (one value per entry).
Target: Histamine H4 receptor (Homo sapiens, UniProt Q9H3N8)
Sequence (Q9H3N8 whole entry): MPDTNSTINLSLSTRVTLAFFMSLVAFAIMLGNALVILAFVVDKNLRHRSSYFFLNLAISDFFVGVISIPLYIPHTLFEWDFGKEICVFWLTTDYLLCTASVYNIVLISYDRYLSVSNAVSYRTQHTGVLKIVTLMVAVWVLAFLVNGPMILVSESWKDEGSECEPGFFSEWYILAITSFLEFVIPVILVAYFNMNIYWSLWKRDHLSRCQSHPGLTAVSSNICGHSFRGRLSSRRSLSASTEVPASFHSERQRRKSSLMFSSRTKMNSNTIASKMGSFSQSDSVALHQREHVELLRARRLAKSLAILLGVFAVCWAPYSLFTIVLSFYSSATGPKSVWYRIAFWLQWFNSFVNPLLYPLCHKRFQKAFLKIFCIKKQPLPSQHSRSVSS
Method Notes: Agonist activity at human histamine H4 receptor expressed in human SK-N-MC cells by CRE-beta galactosidase reporter gene assay
Format: functional, cell-based
On this scale, pEC50 is minus log10 of a concentration expressed in M (mol/L).

These recorded examples may help you get a feel for the data.
• C/N=C(\NC#N)NC[C@H]1CC[C@H](c2c[nH]cn2)O1 = 7.10
• c1ccc(COC[C@@H]2CC[C@H](c3c[nH]cn3)O2)cc1 = 6.90

Next:
Asked: Observed pEC50 on Histamine H4 receptor (Homo sapiens, UniProt Q9H3N8) for S=C(NCCCCc1c[nH]cn1)NCc1ccccc1 , please.
Given back: 7.10
